test_summary: gradient 5% acetonitrile 3 min, to 50% in 2 min, to 85% in 15 min, held 3 min, 100 µL/min
test_settings: column: Zorbax Extend-C18 2.1 x 50 mm; eluents: water / acetonitrile, 0.1% formic acid
Binary label based on RP-LC retention time with cut-off 800 s: below gives label 1, not below gives label 0.

[
  {
    "compound": "COC(=O)c1cccc(NC(=O)NC2CCN(c3ccc(C)c(C)c3)C2=O)c1 (centres undefined)",
    "assigned_class": "label 0"
  },
  {
    "compound": "CC(C)CCNC(=O)CSc1nc(N2CCc3ccccc3C2)nc2ccccc12",
    "assigned_class": "label 0"
  },
  {
    "compound": "COc1ccc(S(=O)(=O)N2CC(=O)N(C3CCCC3)C3(CCCCC3)C2)cc1OC",
    "assigned_class": "label 0"
  },
  {
    "compound": "O=C1C2N=NN(Cc3nc(-c4ccccc4)no3)C2C(=O)N1c1ccc(F)cc1 (centres undefined)",
    "assigned_class": "label 0"
  },
  {
    "compound": "CC(C)n1cnnc1CC1CN(C(=O)Nc2ccccc2F)C1",
    "assigned_class": "label 1"
  },
  {
    "compound": "O=C(Nc1ccccc1Cl)C1CN(S(=O)(=O)C2CC2)CC12CCCCC2 (centres undefined)",
    "assigned_class": "label 0"
  },
  {
    "compound": "CCN1C(=O)COc2ccc(-c3csc(NC(=O)c4cccs4)n3)cc21",
    "assigned_class": "label 0"
  },
  {
    "compound": "Cc1ccc(Oc2ccc(NS(=O)(=O)c3ccc(F)cc3F)cc2)nn1",
    "assigned_class": "label 1"
  },
  {
    "compound": "Cc1ccccc1Cn1ccnc1C(N)=O",
    "assigned_class": "label 1"
  },
  {
    "compound": "CN1C(=O)c2cccn2CC1CNS(=O)(=O)Cc1ccccc1 (centres undefined)",
    "assigned_class": "label 1"
  },
  {
    "compound": "O=C(NCc1ccncc1)C1CCN(C(=O)c2ncn3c2COC(c2ccc(Cl)cc2)C3)CC1 (centres undefined)",
    "assigned_class": "label 1"
  },
  {
    "compound": "CC(C)Cc1ccc([C@@H](C)C(=O)NS(C)(=O)=O)cc1",
    "assigned_class": "label 0"
  },
  {
    "compound": "COc1cc(NC(=O)c2cnc(-c3ccccc3)nc2-c2ccncc2)cc(OC)c1",
    "assigned_class": "label 0"
  },
  {
    "compound": "C=CCn1c(=O)c2ccccc2n(Cc2nc(-c3ccc(OC)c(OC)c3)no2)c1=O",
    "assigned_class": "label 0"
  },
  {
    "compound": "COC(=O)c1ccc(NC(=O)N2CCCC2c2cc(C(C)C)no2)cc1 (centres undefined)",
    "assigned_class": "label 0"
  },
  {
    "compound": "Cc1cc(NC(=O)Cn2cnc(-c3ccc(Cl)cc3)cc2=O)no1",
    "assigned_class": "label 1"
  },
  {
    "compound": "O=C(NCC1CCOCC1)Nc1cccc(Cl)c1",
    "assigned_class": "label 1"
  },
  {
    "compound": "CN(C)[C@@H]1CN(C(=O)COc2ccccc2)C[C@H]1CO",
    "assigned_class": "label 1"
  },
  {
    "compound": "Cc1cc2oc(C(=O)Nc3ccccc3[N+](=O)[O-])c(C)c2cc1C",
    "assigned_class": "label 0"
  },
  {
    "compound": "Cc1ccc2c(Nc3ccc(F)c(C)c3)c(-c3nc(C)no3)cnc2n1",
    "assigned_class": "label 1"
  },
  {
    "compound": "Cc1ccc(C)c(N2CCN(c3ccnc(SCC(=O)NCc4ccc5c(c4)OCO5)n3)CC2)c1",
    "assigned_class": "label 0"
  },
  {
    "compound": "Cc1c2cnn(-c3ccccc3)c(=O)c2c(C)n1CCCC(=O)NCC1CCCO1 (centres undefined)",
    "assigned_class": "label 1"
  },
  {
    "compound": "Cc1cc(C)cc(NC(=O)c2cccn2Cc2noc(C)n2)c1",
    "assigned_class": "label 0"
  },
  {
    "compound": "CCCNC(=O)CC1Sc2ncccc2N(CCC)C1=O (centres undefined)",
    "assigned_class": "label 1"
  },
  {
    "compound": "Cc1ccc(-c2nnc(Cc3nc(-c4ccc(OC(C)C)cc4)no3)o2)cc1C",
    "assigned_class": "label 0"
  },
  {
    "compound": "CCCc1noc(-c2ccc(-n3ncc(C(=O)NC4CCCC4)c3C)nc2)n1",
    "assigned_class": "label 0"
  },
  {
    "compound": "COc1ccc(-c2nn3c(N4CCN(c5ccccn5)CC4)cc(C)nc3c2C)cc1OC",
    "assigned_class": "label 1"
  },
  {
    "compound": "O=C(Cn1nc(N2CCCCCC2)c2ccccc2c1=O)NC1CCc2ccccc21 (centres undefined)",
    "assigned_class": "label 0"
  },
  {
    "compound": "CCCCN(C)c1ccc(NC(=O)CC(C)C)c(C(=O)O)c1",
    "assigned_class": "label 1"
  },
  {
    "compound": "Cc1ccc(Nc2c(-c3ccccc3Cl)nc3ccc(Br)cn23)cc1",
    "assigned_class": "label 0"
  },
  {
    "compound": "CCn1c(=O)c2cc(C(=O)NCc3ccc(N4CCC(C)CC4)cc3)nn2c2ccccc21",
    "assigned_class": "label 1"
  },
  {
    "compound": "O=C(COc1ccccc1)N1CCCC(OCc2nc(C3CC3)no2)C1 (centres undefined)",
    "assigned_class": "label 1"
  },
  {
    "compound": "COc1ccccc1NC(=O)N1CC(c2nc(C)no2)C2(CCOCC2)C1 (centres undefined)",
    "assigned_class": "label 1"
  },
  {
    "compound": "Cc1ccc(NC(=O)C2CCCN(c3ncnc4c3nc3n4CCCCC3)C2)nc1 (centres undefined)",
    "assigned_class": "label 1"
  },
  {
    "compound": "CC(CN(CCS(=O)(=O)N1CCNCC1)C(=O)c1ccc(Br)cc1)c1ccccc1 (centres undefined)",
    "assigned_class": "label 1"
  }
]
